All values here come from PubChem BioAssay (NCI).

# Test Method Notes: NCI Yeast Anticancer Drug Screen. Data for the bub3 strain (AID 167)
# Applied Conditions: S. cerevisiae bub3 mutant strain, at 5.0 µM (retest, dose inferred, filed as 0.5), hits give high values
Compounds without any hit were thinned out: in the full panel of roughly 79,000, 15% have a hit.
Measured Metric: growth inhibition (%)
Your answer is read as %, so omit the unit and give the number.

Worked cases, answers included:
[
  {
    "Molecule": "CNC(=O)Oc1ccccc1/C=N\\Sc1ccc(Cl)cc1",
    "Unit Symbol": "%",
    "growth inhibition": -4
  },
  {
    "Molecule": "C=CCCCCCCCCC(=O)O (tested in a mixture with another compound)",
    "Unit Symbol": "%",
    "growth inhibition": -7
  },
  {
    "Molecule": "C=CO/C(C)=C(\\[Se]c1ccccc1)C(C)=O",
    "Unit Symbol": "%",
    "growth inhibition": -8
  },
  {
    "Molecule": "O=c1oc2ccccc2c(O)c1C(c1ccco1)c1c(O)c2ccccc2oc1=O",
    "Unit Symbol": "%",
    "growth inhibition": 9
  },
  {
    "Molecule": "C1CC[N-]CC1.C1CC[N-]CC1.N#CO.[Ag]",
    "Unit Symbol": "%",
    "growth inhibition": 99
  }
]

QUERY: I am curious: what growth inhibition value has been reported for COc1cc(C=Nc2cc(Br)c(OC)c(Br)c2)ccc1N(CCCl)CCCl ?
RESULT: -8

QUERY: Similarly, N#C[S-].[Nd+3].c1cnc2c(c1)ccc1cccnc12.c1cnc2c(c1)ccc1cccnc12.c1cnc2c(c1)ccc1cccnc12 ?
RESULT: 98

QUERY: Similarly, CC1=C(O)C(=O)C=C2C1=CC=C1[C@@]2(C)CCC2(C)[C@@H]3C[C@@H](C)C(=O)C[C@]3(C)CC[C@]12C (some centres not stated) ?
RESULT: 38

###

# Test Method Notes: NCI Yeast Anticancer Drug Screen. Data for the mlh1 strain (AID 171);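 note: 0% = growth of vehicle-treated control cultures of the same strain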
# Applied Conditions: S. cerevisiae mlh1 strain growth inhibition; at 100.0 µM; hits give high values
The panel holds about 79,000 compounds, 15% with a hit somewhere; the sample as a whole holds those more often.
Outcome: Condition met for growth inhibition of at least 80%; Condition not met for anything lower.

Example entries begin here.
[
  {
    "Compound": "CC1CCC2(NC1)OC1CC3C4CCC5CC(OC6OC(CO)C(OC7OC(CO)C(O)C(OC8OCC(O)C(O)C8O)C7OC7OC(CO)C(O)C(O)C7O)C(O)C6O)CCC5(C)C4CCC3(C)C1C2C (centres undefined)",
    "Class": "Condition met"
  },
  {
    "Compound": "CC[C@@]1(O)C[C@H](OC2CC(N(C)C)C(O)C(C)O2)c2c(O)c3c(c(O)c2[C@H]1OC1CC(N(C)C)C(O)C(C)O1)C(=O)c1cccc(O)c1C3=O (some centres undefined)",
    "Class": "Condition met"
  },
  {
    "Compound": "CCCCCCCCCCCCCCCCP(=O)(O)OP(=O)(O)OCC1OC(n2ccc(N)nc2=O)C(O)C1O (centres undefined)",
    "Class": "Condition not met"
  }
]

Now consider the entry below.
QUERY: Could you please find out whether C=C[C@H]1CN2CC[C@H]1C[C@@H]2[C@@H](O)c1ccnc2ccccc12 has growth inhibition that meets 80% or exceeds it?
RESULT: Condition not met
